Kindly state log10 of IC50 for each of the entries shown.
# Target: Cholecystokinin receptor (Rattus norvegicus, UniProt P30551+P30553)
# Sequence (P30551 whole entry): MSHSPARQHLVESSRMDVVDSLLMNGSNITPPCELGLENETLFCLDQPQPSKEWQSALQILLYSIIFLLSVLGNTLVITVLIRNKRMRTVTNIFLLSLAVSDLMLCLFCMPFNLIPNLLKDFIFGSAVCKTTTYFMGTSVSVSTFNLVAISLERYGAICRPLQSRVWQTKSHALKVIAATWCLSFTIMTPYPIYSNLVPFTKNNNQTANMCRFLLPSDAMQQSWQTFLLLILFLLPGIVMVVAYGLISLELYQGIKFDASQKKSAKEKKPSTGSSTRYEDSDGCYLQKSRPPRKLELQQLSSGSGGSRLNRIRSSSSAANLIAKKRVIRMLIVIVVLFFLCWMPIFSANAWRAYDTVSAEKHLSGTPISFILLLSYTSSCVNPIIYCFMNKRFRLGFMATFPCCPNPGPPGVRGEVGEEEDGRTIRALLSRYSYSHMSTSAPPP
# Sequence (P30553 whole entry): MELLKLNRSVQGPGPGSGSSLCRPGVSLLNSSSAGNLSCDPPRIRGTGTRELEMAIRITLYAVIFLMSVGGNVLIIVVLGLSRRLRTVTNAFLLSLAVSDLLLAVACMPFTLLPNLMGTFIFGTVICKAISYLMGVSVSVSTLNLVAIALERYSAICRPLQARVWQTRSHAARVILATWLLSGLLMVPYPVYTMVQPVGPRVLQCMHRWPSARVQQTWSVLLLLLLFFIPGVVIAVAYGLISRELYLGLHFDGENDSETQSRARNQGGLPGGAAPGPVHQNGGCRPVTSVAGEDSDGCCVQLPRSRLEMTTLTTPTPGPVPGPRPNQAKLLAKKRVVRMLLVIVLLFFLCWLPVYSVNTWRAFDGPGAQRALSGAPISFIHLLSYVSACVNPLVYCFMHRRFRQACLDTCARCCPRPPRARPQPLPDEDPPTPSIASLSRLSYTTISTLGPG
# Procedure text: Half-maximal inhibition of binding of [125I]CCK-8 to Cholecystokinin receptor in rat pancreatic tissue
Remember, log10 of IC50, in µM.

INPUT: # value lookup — system Cholecystokinin receptor (Rattus norvegicus, UniProt P30551+P30553), readout log10 of IC50, item O=C(O)CN1C(=O)C(NC(=O)c2ccc3ccccc3c2)CCc2ccccc21 (configuration not stated)
OUTPUT: 0.36

INPUT: # value lookup — system Cholecystokinin receptor (Rattus norvegicus, UniProt P30551+P30553), readout log10 of IC50, item CC(C)(C)OC(=O)CN1C(=O)C(NC(=O)c2ccc3ccccc3c2)CCc2ccccc21 (configuration not stated)
OUTPUT: -2.12

INPUT: # value lookup — system Cholecystokinin receptor (Rattus norvegicus, UniProt P30551+P30553), readout log10 of IC50, item CN1C(=O)C(NC(=O)c2ccc3ccccc3c2)CCc2ccccc21 (configuration not stated)
OUTPUT: 0.83

INPUT: # value lookup — system Cholecystokinin receptor (Rattus norvegicus, UniProt P30551+P30553), readout log10 of IC50, item CC(C)(C)OC(=O)CN1C(=O)C(NC(=O)c2ccccc2)CCc2ccccc21 (configuration not stated)
OUTPUT: 0.32

INPUT: # value lookup — system Cholecystokinin receptor (Rattus norvegicus, UniProt P30551+P30553), readout log10 of IC50, item CC(C)(C)OC(=O)CN1C(=O)C(NCc2ccc3ccccc3c2)CCc2ccccc21 (configuration not stated)
OUTPUT: -2.40

INPUT: # value lookup — system Cholecystokinin receptor (Rattus norvegicus, UniProt P30551+P30553), readout log10 of IC50, item CC(C)(C)OC(=O)CN1C(=O)C(NC(=O)Cc2ccc3ccccc3c2)CCc2ccccc21 (configuration not stated)
OUTPUT: 0.43

INPUT: # value lookup — system Cholecystokinin receptor (Rattus norvegicus, UniProt P30551+P30553), readout log10 of IC50, item CN(C)c1ccc(C(=O)NC2CCc3ccccc3N(CC(=O)OC(C)(C)C)C2=O)cc1 (configuration not stated)
OUTPUT: 1.70
